# System: M17-TAU P301L cells
# protocol_notes: TAU cytotoxicity assay: LDH leakage of retinoic acid incubated M17-TAU P301L cells
# Type: cell-based, human
# condition_summary: Homo sapiens, 168 h, reduction of LDH activity of retinoic acid incubated M17-TAU P301L cells, 7 days
parameter_measured: log10 of EC50 (log10 of the value in nM)
Note the log scale: values are log10 of EC50 expressed in nM.

# count of solved cases: 8
>>> df
                                   compound  measured_value
0  Cc1ccc(N2CCC(C(=O)NCCc3c[nH]c4ccc(Cl)cc34)C2=O)cc1F (centres unmarked)            2.00
1  Cc1ccccc1Cc1nc(C(=O)NCCc2c[nH]c3ccc(Cl)cc23)no1            1.72
2  COc1ccc(N2CCC(C(=O)NCCc3c[nH]c4ccc(Cl)cc34)C2=O)cc1 (centres unmarked)            2.61
3  O=C(NCCc1c[nH]c2ccc(Cl)cc12)c1ccnn1-c1ccccc1            2.99
4  O=C(NCCc1c[nH]c2ccc(Cl)cc12)C1CCN(CC2CCCCC2)C1=O (centres unmarked)            2.51
5  O=C(NCCc1c[nH]c2ccc(Cl)cc12)c1cc(Cc2ccsc2)on1            1.54
6  O=C(NCCc1c[nH]c2ccc(Cl)cc12)C1=N[C@H](C2CCCCC2)CO1            2.31
7  O=C(NCCc1c[nH]c2ccc(Cl)cc12)c1noc(Cc2ccc(Cl)c(F)c2)n1            1.97

Query: Give recorded log10 of EC50. `Cc1ccc(Nc2nc(C(=O)NCCc3c[nH]c4ccccc34)cs2)cc1`
Reply: 2.44

Query: Give recorded log10 of EC50. O=C(NCCc1c[nH]c2ccc(Cl)cc12)C1CC(c2ccccc2)=NO1 (centres unmarked)
Reply: 2.18

Query: Give recorded log10 of EC50. `Cc1nc(-c2cnccn2)sc1C(=O)NCCc1c[nH]c2ccc(Cl)cc12`
Reply: 2.71

Query: Give recorded log10 of EC50. O=C(NCCc1c[nH]c2ccc(Cl)cc12)C1CCN(c2ccc3c(c2)CCC3)C1=O (centres unmarked)
Reply: 2.14

Query: Give recorded log10 of EC50. `Cc1cc2c(CCNC(=O)c3cc(Cc4cc(F)ccc4F)on3)c[nH]c2cc1Cl`
Reply: 2.87

src = patent US8618138B2
